biological target: Protein deacetylase HDAC6 (Homo sapiens); test: Inhibition of full length recombinant human HDAC6 at 10 uM using Fluor-de-Lys deacetylase as substrate preincubated for 15 mins followed by substrate addition and measured after 60 mins by spectrofluorimetric method relative to control
Endpoint label: inhibition (%)

O=C(NO)c1ccc(Cn2c3c(c4cc(F)ccc42)C[S+]([O-])CC3)cc1 (stereo not given)
100
O=C(NO)c1ccccc1
88
O=C(c1ccc(Cn2c3c(c4cc(F)ccc42)C[S+]([O-])CC3)cc1)C(F)(F)F (stereo not given)
25
O=C(c1ccccc1)C(F)(F)F
0
O=C(c1ccc(Cn2c3c(c4ccccc42)C[S+]([O-])CC3)cc1)C(F)(F)F (stereo not given)
17

These data points were gathered from ChEMBL document CHEMBL4257515.
